target: Ephrin type-A receptor 7 (Homo sapiens, UniProt Q15375); test: Inhibition of recombinant human EphA7 (613 to 909 residues) using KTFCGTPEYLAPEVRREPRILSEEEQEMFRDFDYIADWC as substrate incubated for 40 mins in presence of [gamma-33ATP] by scintillation counting based radiometry assay
Sequence (Q15375 whole entry, the tested form may be a part): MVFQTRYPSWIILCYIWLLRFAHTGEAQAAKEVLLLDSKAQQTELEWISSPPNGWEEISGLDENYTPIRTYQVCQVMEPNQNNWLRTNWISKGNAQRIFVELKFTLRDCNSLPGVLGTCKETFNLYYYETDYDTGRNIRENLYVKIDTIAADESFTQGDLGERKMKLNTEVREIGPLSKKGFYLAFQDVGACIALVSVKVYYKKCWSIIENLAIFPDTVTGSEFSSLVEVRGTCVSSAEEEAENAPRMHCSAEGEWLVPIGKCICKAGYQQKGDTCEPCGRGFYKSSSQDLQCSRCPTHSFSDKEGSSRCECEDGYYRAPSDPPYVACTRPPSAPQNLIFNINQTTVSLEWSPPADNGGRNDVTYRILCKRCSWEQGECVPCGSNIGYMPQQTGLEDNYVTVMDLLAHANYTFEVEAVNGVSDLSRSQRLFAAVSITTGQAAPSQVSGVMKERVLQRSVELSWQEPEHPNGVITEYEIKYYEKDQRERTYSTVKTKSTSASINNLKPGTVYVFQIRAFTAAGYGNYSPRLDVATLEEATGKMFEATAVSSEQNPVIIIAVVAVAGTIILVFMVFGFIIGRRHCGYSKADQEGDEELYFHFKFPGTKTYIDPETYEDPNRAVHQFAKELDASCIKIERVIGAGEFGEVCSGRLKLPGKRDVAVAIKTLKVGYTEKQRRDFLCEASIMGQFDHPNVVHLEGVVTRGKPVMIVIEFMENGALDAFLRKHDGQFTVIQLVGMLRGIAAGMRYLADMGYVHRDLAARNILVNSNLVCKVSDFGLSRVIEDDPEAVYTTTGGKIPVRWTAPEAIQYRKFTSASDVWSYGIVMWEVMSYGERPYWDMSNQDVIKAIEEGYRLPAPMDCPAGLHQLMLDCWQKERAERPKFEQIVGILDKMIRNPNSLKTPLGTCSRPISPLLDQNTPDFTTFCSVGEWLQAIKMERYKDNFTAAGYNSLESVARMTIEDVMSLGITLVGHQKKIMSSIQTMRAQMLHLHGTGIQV
quantity_measured: pIC50
Conceptually, pIC50 converts a concentration in mol/L into minus its log10.

Quick one: pIC50 for CC(C)(C)c1cc(NC(=O)Nc2ccc(Nc3ncnc4c3OCCCN4)cc2)no1 ?
6.70

* * *

molecular target: CDK9/cyclin T1 (Homo sapiens, UniProt P50750); assay: Inhibition of recombinant full length human CDK9/cyclinT1 using KTFCGTPEYLAPE as substrate incubated for 40 mins in presence of [gamma-33ATP] by scintillation counting based radiometry assay
Sequence (O60563 whole entry): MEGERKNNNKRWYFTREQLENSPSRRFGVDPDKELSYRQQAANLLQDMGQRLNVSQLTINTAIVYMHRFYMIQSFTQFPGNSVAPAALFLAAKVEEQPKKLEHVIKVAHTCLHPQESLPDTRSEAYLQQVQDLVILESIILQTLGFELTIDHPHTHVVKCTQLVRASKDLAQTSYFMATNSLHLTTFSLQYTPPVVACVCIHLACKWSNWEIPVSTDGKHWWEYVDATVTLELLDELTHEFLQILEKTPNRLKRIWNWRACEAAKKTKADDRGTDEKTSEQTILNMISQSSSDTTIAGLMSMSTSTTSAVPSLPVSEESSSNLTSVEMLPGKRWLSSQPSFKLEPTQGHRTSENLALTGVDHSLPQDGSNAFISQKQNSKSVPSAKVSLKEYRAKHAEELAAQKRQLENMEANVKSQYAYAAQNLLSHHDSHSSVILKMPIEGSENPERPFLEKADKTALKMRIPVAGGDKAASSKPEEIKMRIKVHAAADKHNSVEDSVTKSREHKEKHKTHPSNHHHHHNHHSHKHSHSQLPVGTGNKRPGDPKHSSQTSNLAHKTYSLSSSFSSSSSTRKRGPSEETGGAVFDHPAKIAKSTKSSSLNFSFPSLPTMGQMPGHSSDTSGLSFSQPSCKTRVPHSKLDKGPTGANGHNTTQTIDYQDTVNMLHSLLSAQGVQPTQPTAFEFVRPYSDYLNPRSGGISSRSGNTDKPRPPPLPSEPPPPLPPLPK
Sequence (P50750 whole entry): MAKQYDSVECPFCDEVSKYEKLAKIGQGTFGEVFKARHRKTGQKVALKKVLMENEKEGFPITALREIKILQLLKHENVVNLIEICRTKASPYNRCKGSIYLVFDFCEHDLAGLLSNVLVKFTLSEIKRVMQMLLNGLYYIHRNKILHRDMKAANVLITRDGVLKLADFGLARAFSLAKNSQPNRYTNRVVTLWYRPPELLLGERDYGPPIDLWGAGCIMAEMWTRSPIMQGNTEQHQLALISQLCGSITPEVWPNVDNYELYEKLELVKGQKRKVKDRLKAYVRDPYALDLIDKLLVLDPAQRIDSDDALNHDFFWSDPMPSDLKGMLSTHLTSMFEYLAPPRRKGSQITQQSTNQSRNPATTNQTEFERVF
quantity_measured: pIC50
Hey, just a heads up that pIC50 is the negative log base 10 of the concentration in molar.

# lookup: pIC50 of CC(C)(C)c1cc(NC(=O)Nc2ccc(Nc3ncnc4c3OCCCN4)cc2)no1
6.08

* * *

Consider the following IC50 values measured on Proto-oncogene tyrosine-protein kinase receptor Ret (Homo sapiens, UniProt P07949, V804M).
Sequence (P07949 29-1114 V804M limits assumed): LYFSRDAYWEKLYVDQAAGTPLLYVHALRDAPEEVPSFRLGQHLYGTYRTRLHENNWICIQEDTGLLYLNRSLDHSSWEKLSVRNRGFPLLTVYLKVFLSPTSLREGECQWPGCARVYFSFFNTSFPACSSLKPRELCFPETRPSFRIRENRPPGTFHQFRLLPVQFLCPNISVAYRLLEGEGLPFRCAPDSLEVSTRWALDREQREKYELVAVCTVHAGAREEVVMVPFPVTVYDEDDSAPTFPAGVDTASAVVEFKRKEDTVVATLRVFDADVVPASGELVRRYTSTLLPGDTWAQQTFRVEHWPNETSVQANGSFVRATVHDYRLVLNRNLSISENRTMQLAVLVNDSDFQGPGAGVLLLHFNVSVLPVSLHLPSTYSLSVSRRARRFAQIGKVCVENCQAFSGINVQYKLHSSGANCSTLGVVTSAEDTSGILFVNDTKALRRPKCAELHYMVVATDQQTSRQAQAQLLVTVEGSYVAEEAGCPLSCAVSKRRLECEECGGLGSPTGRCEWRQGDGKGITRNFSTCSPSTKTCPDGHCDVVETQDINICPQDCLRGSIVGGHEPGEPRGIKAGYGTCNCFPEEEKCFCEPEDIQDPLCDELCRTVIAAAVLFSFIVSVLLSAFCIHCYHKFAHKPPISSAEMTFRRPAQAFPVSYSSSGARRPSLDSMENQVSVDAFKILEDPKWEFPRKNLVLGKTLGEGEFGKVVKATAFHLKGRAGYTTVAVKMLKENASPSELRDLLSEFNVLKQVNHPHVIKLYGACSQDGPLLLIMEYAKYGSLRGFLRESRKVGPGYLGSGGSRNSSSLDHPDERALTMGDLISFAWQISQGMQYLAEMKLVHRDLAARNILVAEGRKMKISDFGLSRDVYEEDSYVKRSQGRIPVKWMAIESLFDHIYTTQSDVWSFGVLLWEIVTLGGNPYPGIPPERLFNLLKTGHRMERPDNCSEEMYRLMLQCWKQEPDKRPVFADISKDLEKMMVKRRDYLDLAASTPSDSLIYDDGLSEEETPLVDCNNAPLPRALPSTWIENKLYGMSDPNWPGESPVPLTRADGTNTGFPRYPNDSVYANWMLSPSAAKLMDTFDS
Supply the numeric figure in nM, leaving out any unit text.

Example entries begin here.
INSERT INTO results (query_smiles, measured_target, quantity_measured, units_label, reported_measurement) VALUES
  ('Cc1nc(Nc2ncnc3c2OCCN3)ccc1NC(=O)Nc1cc(C(C)(C)C)on1', 'Proto-oncogene tyrosine-protein kinase receptor Ret (Homo sapiens, UniProt P07949, V804M)', 'IC50', 'nM', 1110),
  ('COc1ccc(NC(=O)Nc2ccc(Nc3ncnc4c3OCCN4)cc2)cc1', 'Proto-oncogene tyrosine-protein kinase receptor Ret (Homo sapiens, UniProt P07949, V804M)', 'IC50', 'nM', 824),
  ('CN1CCCOc2c(Nc3ccc(NC(=O)Nc4cc(C(C)(C)C)on4)cc3)ncnc21', 'Proto-oncogene tyrosine-protein kinase receptor Ret (Homo sapiens, UniProt P07949, V804M)', 'IC50', 'nM', 716);

Attention now shifts to the item below.
Entry O=C(Nc1ccc(Nc2ncnc3c2OCCN3)cc1)Nc1cc(Cl)cc(Cl)c1 has what IC50?
1300

* * *

experiment: Growth inhibition of […] NIH3T3 cells harboring RET C634Y mutant incubated for 3 days by MTT assay; type: functional; conditions: NIH3T3, 72 h; time 3 day
Decide using GI50 alone. Strictly below 2 µM: Criterion met. Equal to or above 2 µM: Criterion not met.

INSERT INTO measurements (query_smiles, class_label) VALUES
  ('COc1ccc(NC(=O)Nc2ccc(Nc3ncnc4c3OCCN4)cc2)cc1', 'Criterion not met'),
  ('COc1cccc(NC(=O)Nc2ccc(Nc3ncnc4c3OCCN4)cc2)c1', 'Criterion not met'),
  ('CN1CCCOc2c(Nc3ccc(NC(=O)Nc4cc(C(C)(C)C)on4)cc3)ncnc21', 'Criterion not met');

Input CC(C)(C)c1cc(NC(=O)Nc2ccc(Nc3ncnc4c3OCCN4)cc2F)no1 ; condition: GI50 strictly below 2 µM. Does it hold?
Criterion met

For O=C(Nc1ccc(Nc2ncnc3c2OCCN3)cc1)Nc1cccc2ccccc12 , is the recorded GI50 below the cut-off of 2 µM?
Criterion not met

Check if GI50 falls below 2 µM for CC(C)(C)c1cc(NC(=O)Nc2ccc(Nc3ncnc4c3OCCCN4)cc2)no1 .
Criterion met

is_below(GI50, 2 µM) for CC(C)(C)c1csc(NC(=O)Nc2ccc(Nc3ncnc4c3OCCN4)cc2)n1 ?
Criterion not met

Lab note: GI50 threshold 2 µM. Does this compound come in strictly under it? CC(C)(C)c1cc(NC(=O)Nc2ccc(Nc3ncnc4c3OCCN4)c(O)c2)no1
Criterion met

For O=C(Nc1ccc(Br)cc1)Nc1ccc(Nc2ncnc3c2OCCN3)cc1 , is the recorded GI50 below the cut-off of 2 µM?
Criterion not met

* * *

tested on: BaF3; assay: Growth inhibition of mouse BaF3 cells harboring RET M918T mutant incubated for 3 days by MTT assay; assay type: functional; conditions: BaF3, 72 h, time 3 day
# GI50 per entry

Examples from the recorded data:
INSERT INTO assay_data (compound, quantity_measured, reported_measurement) VALUES
  ('O=C(Nc1ccc(Cl)cc1)Nc1ccc(Nc2ncnc3c2OCCN3)cc1', 'GI50', '> 10 µM'),
  ('O=C(Nc1ccc(Nc2ncnc3c2OCCN3)cc1)Nc1ccc(C(F)(F)F)cc1', 'GI50', '> 10 µM'),
  ('O=C(Nc1ccc(Nc2ncnc3c2OCCN3)cc1)Nc1cccs1', 'GI50', '> 10 µM');

Suppose we examine the compound Cc1nc(Nc2ncnc3c2OCCN3)ccc1NC(=O)Nc1cc(C(C)(C)C)on1 ; what GI50 value has been reported?
> 10 µM

I would be grateful if you could share the reported GI50 for O=C(Nc1ccc(Nc2ncnc3c2OCCN3)cc1)Nc1cccc(-c2ccccc2)c1 .
> 10 µM

Look at this compound and give its reported GI50. O=C(Nc1ccc(Br)cc1)Nc1ccc(Nc2ncnc3c2OCCN3)cc1
> 10 µM

Form field: reported GI50 of O=C(Nc1ccc(Nc2ncnc3c2OCCN3)cc1)Nc1cccc2ccccc12
> 10 µM

* * *

Each item that follows carries a reported GI50.
test system: BaF3; test: Growth inhibition of mouse BaF3 cells harboring RET V804M mutant incubated for 3 days by MTT assay; format: functional; settings: BaF3, 72 h, time 3 day

Solved cases (5 shown):
INSERT INTO assay_data (query_smiles, reported_measurement) VALUES
  ('CC(C)(C)c1cc(NC(=O)Nc2cccc(Nc3ncnc4c3OCCN4)c2)no1', '> 10 µM'),
  ('O=C(Nc1ccc(Br)cc1)Nc1ccc(Nc2ncnc3c2OCCN3)cc1', '> 10 µM'),
  ('CC(C)(C)c1cc(NC(=O)Nc2ccc(Nc3ncnc4c3OCCN4)cc2)no1', '1.36 µM'),
  ('COc1cc(NC(=O)Nc2cc(C(C)(C)C)on2)ccc1Nc1ncnc2c1OCCN2', '> 10 µM'),
  ('CC(C)(C)c1cc(NC(=O)Nc2ccc(Nc3ncnc4c3OCCN4)cc2F)no1', '4.72 µM');

Which GI50 value is on record for CNC(=O)c1cc(Oc2ccc(NC(=O)Nc3ccc(Cl)c(C(F)(F)F)c3)cc2)ccn1 ?
1.1 µM

Please report the recorded GI50 for CN1CCOc2c(Nc3ccc(NC(=O)Nc4cc(C(C)(C)C)on4)cc3)ncnc21 .
> 10 µM

Please report the recorded GI50 for CC(C)(C)c1csc(NC(=O)Nc2ccc(Nc3ncnc4c3OCCN4)cc2)n1 .
> 10 µM

* * *

test system: BaF3; assay: Growth inhibition of mouse BaF3 cells harboring RET M918T mutant incubated for 3 days by MTT assay; type: functional; conditions: BaF3, 72 h, time 3 day
Reported GI50 values follow for various compounds

Examples from the recorded data:
INSERT INTO measurements (compound, reported_measurement) VALUES
  ('CN1CCCOc2c(Nc3ccc(NC(=O)Nc4cc(C(C)(C)C)on4)cc3)ncnc21', '> 10 µM'),
  ('CN1CCOc2c(Nc3ccc(NC(=O)Nc4cc(C(C)(C)C)on4)cc3)ncnc21', '> 10 µM'),
  ('CC(C)(C)c1cc(NC(=O)Nc2ccc(Nc3ncnc4c3OCCN4)nc2)no1', '> 10 µM'),
  ('CC(C)(C)c1csc(NC(=O)Nc2ccc(Nc3ncnc4c3OCCN4)cc2)n1', '> 10 µM'),
  ('CC(C)N1CCOc2c(Nc3ccc(NC(=O)Nc4cc(C(C)(C)C)on4)cc3)ncnc21', '8.61 µM'),
  ('CC(C)(C)c1cc(NC(=O)Nc2ccc(Nc3ncnc4c3OCCN4)c(F)c2)no1', '2.94 µM'),
  ('COc1cc2nccc(Oc3ccc(NC(=O)C4(C(=O)Nc5ccc(F)cc5)CC4)cc3)c2cc1OC [CABOZANTINIB]', '1.45 µM'),
  ('CC(C)(C)c1cc(NC(=O)Nc2ccc(Nc3ncnc4c3OCCN4)cc2)no1', '1.62 µM');

// next item, GI50 requested
What does the record list as GI50 for O=C(Nc1ccc(Nc2ncnc3c2OCCN3)cc1)Nc1ccc(Cl)c(C(F)(F)F)c1 ?
9.94 µM

* * *

system: BaF3; assay: Growth inhibition of mouse BaF3 cells harboring RET V804M mutant incubated for 3 days by MTT assay; format: functional; details: BaF3, 72 h, time 3 day
quantity_measured: GI50

Examples from the recorded data:
INSERT INTO measurements (query_smiles, quantity_measured, reported_measurement) VALUES
  ('Cc1nc(Nc2ncnc3c2OCCN3)ccc1NC(=O)Nc1cc(C(C)(C)C)on1', 'GI50', '> 10 µM'),
  ('O=C(Nc1ccc(Nc2ncnc3c2OCCN3)cc1)Nc1ccc(C(F)(F)F)cc1', 'GI50', '8.49 µM');

Value lookup for GI50; key = O=C(Nc1ccc(Nc2ncnc3c2OCCN3)cc1)Nc1cccs1
> 10 µM

Source listed as ChEMBL document CHEMBL4765237.
